This section presents molecules with their documented inhibition at 10 µM values.
Target: BTK (Homo sapiens, UniProt Q06187)
Sequence (Q06187 402-655 limits assumed): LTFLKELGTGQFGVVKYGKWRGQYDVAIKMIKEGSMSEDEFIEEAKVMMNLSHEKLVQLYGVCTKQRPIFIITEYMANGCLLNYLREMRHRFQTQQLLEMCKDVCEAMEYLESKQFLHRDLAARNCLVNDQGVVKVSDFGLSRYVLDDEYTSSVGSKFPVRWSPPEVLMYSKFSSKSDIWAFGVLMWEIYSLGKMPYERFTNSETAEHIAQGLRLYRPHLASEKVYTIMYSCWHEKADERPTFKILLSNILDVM
Experiment: biochemical
Conditions: read-out: BTK inhibition (%), 0.75 uM BTK, […] probe 3l, 15 min preincubation
*1 amine or outer side, *2 acyl side, *3 side chain or, on linkers, in order; H or OH if unused. Where a SMILES comes first, the peptide text is derived from it. Bridges are numbered along the chain shown (N, C = ends). [ ]: non-standard residue; d: D form. The star is where a group is joined. pTerphenylCO(4''-OnC5H11) = CCCCCOc1ccc(-c2ccc(-c3ccc(C(=O)*)cc3)cc2)cc1; Orn(4R-OH,5R-OH) = O=C([C@H](C[C@@H](O)[C@@H](O)N[*:3])N[*:1])[*:2]; hTyr(3S-OH,4S-OH) = N[C@H](C(=O)O)[C@H](O)[C@@H](O)c1ccc(O)cc1; Pro(3S-OH,4S-Me) = C[C@H]1CN[C@H](C(=O)O)[C@H]1O; Hyp = O=C(O)[C@@H]1C[C@@H](O)CN1
Hi! Could you send only the number? It should be in %, unit omitted.

{"MOLECULE": "Oc1cc2c(cc1O)[C@@H]1c3ccc(O)c(O)c3OC[C@]1(O)C2", "REPORTED METRIC": "inhibition at 10 µM", "RESULT VALUE": -15.6}
{"MOLECULE": "CCCCCOc1ccc(-c2ccc(-c3ccc(C(=O)N[C@H]4C[C@@H](O)[C@@H](O)NC(=O)[C@@H]5[C@@H](O)[C@@H](C)CN5C(=O)[C@H]([C@@H](C)O)NC(=O)[C@H]([C@H](O)[C@@H](O)c5ccc(O)cc5)NC(=O)[C@@H]5C[C@@H](O)CN5C(=O)[C@H]([C@@H](C)O)NC4=O)cc3)cc2)cc1 [PCM-0214798] ({pTerphenylCO(4''-OnC5H11)}-[Orn(4R-OH,5R-OH)]T[Hyp][hTyr(3S-OH,4S-OH)]T[Pro(3S-OH,4S-Me)]; lactam 1-C)", "REPORTED METRIC": "inhibition at 10 µM", "RESULT VALUE": 122}
{"MOLECULE": "CC1(C)OCCn2c1nc1c(N3CCOCC3)nc(-c3cnc(N)nc3)nc12", "REPORTED METRIC": "inhibition at 10 µM", "RESULT VALUE": 37.9}

Fill: inhibition at 10 µM (BTK (Homo sapiens, UniProt Q06187)) for this molecule CC(C)C[C@H](NC(=O)[C@H](Cc1ccccc1)C[C@@H](O)[C@H](Cc1ccccc1)NC(=O)OC(C)(C)C)C(=O)N[C@@H](Cc1ccccc1)C(N)=O
5.4

Using BTK (Homo sapiens, UniProt Q06187) as the test system, report measured inhibition at 10 µM of CSc1cccc(Nc2ncc3cc(-c4c(Cl)cccc4Cl)c(=O)n(C)c3n2)c1 .
-18.6

* * *

Target: UniProt Q06187
Experiment: biochemical
Conditions: read-out: BTK inhibition (%), 0.75 uM BTK, […] probe 3l, 15 min preincubation
Recorded inhibition at 10 µM values for a group of compounds are listed next.
# output: bare number, implied unit %

Examples with their reported inhibition at 10 µM follow.
{"COMPOUND": "Nc1nc2ccc(OC(F)(F)F)cc2s1", "inhibition at 10 µM [%]": -10.1}
{"COMPOUND": "CC(C)N(CCNC(=O)CN1CCCC1=O)C(C)C", "inhibition at 10 µM [%]": 1.6}
{"COMPOUND": "Cn1c(=O)cc(N2CCC[C@@H](N)C2)n(Cc2cc(F)ccc2C#N)c1=O", "inhibition at 10 µM [%]": 15.4}

Then there is this compound:
Give UniProt Q06187 inhibition at 10 µM for the following compound: COc1cccc2c1c(O)c(C(=O)N(C)c1ccc(C(F)(F)F)cc1)c(=O)n2C
-27.8

* * *

Target: BTK (Homo sapiens, UniProt Q06187)
Assay: biochemical
Conditions: read-out: BTK inhibition (%), 0.75 uM BTK, […] probe 3l, 15 min preincubation
Property: inhibition at 10 µM; scope: individual compounds
Express the result in % but write the number alone.

{"COMPOUND": "Cc1cc([N+](=O)[O-])ccc1NS(=O)(=O)c1cc(Cl)ccc1Cl [PCM-0215330]", "ENDPOINT UNIT": "%", "inhibition at 10 µM": 11.6}
{"COMPOUND": "COc1cc(NC(=O)c2ccccn2)ccc1Cl [PCM-0095344]", "ENDPOINT UNIT": "%", "inhibition at 10 µM": 15.6}
{"COMPOUND": "CC(=O)Oc1c(C)c(C)c2c(c1C)CC[C@@](C)(CCC[C@H](C)CCC[C@H](C)CCCC(C)C)O2 [PCM-0215944]", "ENDPOINT UNIT": "%", "inhibition at 10 µM": 0}
{"COMPOUND": "CCC[C@H](N[C@H]1CCc2cc(F)cc(F)c2C1)C(=O)Nc1cn(C(C)(C)CNCC(C)(C)C)cn1 [PCM-0215524]", "ENDPOINT UNIT": "%", "inhibition at 10 µM": -3.9}
{"COMPOUND": "CNc1ncc2cc(-c3cc(NC(=O)NCCC(C)(C)C)c(F)cc3C)c(C)nc2n1 [PCM-0215477]", "ENDPOINT UNIT": "%", "inhibition at 10 µM": 40.9}

Determine its reported inhibition at 10 µM: Clc1ccccc1CN1CCc2sccc2C1 [PCM-0085848]
-2.6

Quick one: give measured inhibition at 10 µM for OC(c1ccccc1)(c1ccccc1)C12CC[N+](CCOCc3ccccc3)(CC1)CC2 [PCM-0214921]
-34.2

Hello, please tell me recorded inhibition at 10 µM for this one: COc1ccc(-c2cc(=O)c3c(O)c(OC)c(O)cc3o2)cc1OC [PCM-0214985]
72.4

Kindly indicate its recorded inhibition at 10 µM. Item: O=C(NC1(c2ccccc2)CC1)c1c(CN2CCC(N3CCCCC3)CC2)c(-c2cccc(C(F)(F)F)c2)nc2cc(Br)ccc12 [PCM-0215818]
36.3

Provide inhibition at 10 µM value for the following compound: Cn1ncc(Cl)c1-c1cc(C(=O)N[C@H](CN)Cc2ccc(F)c(F)c2)oc1Cl [PCM-0215609]
-7.6

* * *

Molecular target: UniProt Q06187
Assay: biochemical
Settings: read-out: BTK inhibition (%), 0.75 uM BTK, […] probe 3l, 15 min preincubation
Let's look at some compounds and their measured inhibition at 10 µM.
The reply should be a number in %, with the unit left off.

Worked examples, 3 compounds total:
{"COMPOUND": "CN1Cc2c(ccc3c2OCO3)[C@@]2(C)[C@@H](O)Cc3cc4c(cc3[C@@H]12)OCO4 [PCM-0216379]", "inhibition at 10 µM (%)": -2.3}
{"COMPOUND": "Cn1cc(-c2ccc(S(=O)(=O)n3ccc(/C=C/C(=O)Nc4ccccc4N)c3)cc2)cn1 [PCM-0215419]", "inhibition at 10 µM (%)": 32.4}
{"COMPOUND": "c1cncc(CN2CCC(n3ncc4c(N5CCOCC5)nc(-c5ccc6[nH]ccc6c5)nc43)CC2)c1 [PCM-0095384]", "inhibition at 10 µM (%)": -27.6}

Attention now turns to another entry.
Name the recorded inhibition at 10 µM of CCOC(=O)/C=C/c1ccc(O)c(OC)c1 [PCM-0215040] , assay system UniProt Q06187.
-8.3

* * *

Biological target: BTK (Homo sapiens, UniProt Q06187)
Assay: biochemical
Settings: read-out: BTK inhibition (%), 0.75 uM BTK, […] probe 3l, 15 min preincubation
REPORTED METRIC: inhibition at 10 µM (%)
Answer in %, number only, no unit symbol.

These recorded examples may help you get a feel for the data.
{"COMPOUND": "COc1cc(/C=C/C(=O)N2CCN(CC(=O)N3CCCC3)CC2)cc(OC)c1OC [PCM-0095532]", "REPORTED METRIC": "inhibition at 10 µM", "ENDPOINT UNIT": "%", "RESULT VALUE": 0}
{"COMPOUND": "CCOc1ccccc1N=Nc1c(C)[nH]n(-c2nc(-c3ccccc3)cs2)c1=O [PCM-0215207]", "REPORTED METRIC": "inhibition at 10 µM", "ENDPOINT UNIT": "%", "RESULT VALUE": -8.5}
{"COMPOUND": "CC(C)(C#N)c1cc(Cn2cncn2)cc(C(C)(C)C#N)c1 [PCM-0086178]", "REPORTED METRIC": "inhibition at 10 µM", "ENDPOINT UNIT": "%", "RESULT VALUE": -11}
{"COMPOUND": "COC(=O)C1=C(C)NC(C)=C(C(=O)OCCN(C)Cc2ccccc2)C1c1cccc([N+](=O)[O-])c1 (stereo not drawn) [PCM-0064729]", "REPORTED METRIC": "inhibition at 10 µM", "ENDPOINT UNIT": "%", "RESULT VALUE": 47.5}
{"COMPOUND": "CCOC(=O)NCCCC(=O)NCCc1ccccc1 [PCM-0215356]", "REPORTED METRIC": "inhibition at 10 µM", "ENDPOINT UNIT": "%", "RESULT VALUE": -17}
{"COMPOUND": "CC(C)=CCC[C@](C)(O[C@@H]1O[C@H](CO)[C@@H](O)[C@H](O)[C@H]1O)[C@H]1CC[C@]2(C)[C@@H]1[C@H](O)C[C@@H]1[C@@]3(C)CC[C@H](O[C@@H]4O[C@H](CO)[C@@H](O)[C@H](O)[C@H]4O[C@@H]4O[C@H](CO)[C@@H](O)[C@H](O)[C@H]4O)C(C)(C)[C@@H]3CC[C@]12C [PCM-0215020]", "REPORTED METRIC": "inhibition at 10 µM", "ENDPOINT UNIT": "%", "RESULT VALUE": 21}
{"COMPOUND": "Cc1nnc(SCC2=C(C(=O)O)N3C(=O)[C@@H](NC(=O)Cn4cc(Cl)c(=O)c(Cl)c4)[C@H]3SC2)s1 [PCM-0215135]", "REPORTED METRIC": "inhibition at 10 µM", "ENDPOINT UNIT": "%", "RESULT VALUE": -13.2}
{"COMPOUND": "CN(C)c1nc(N(C)C)nc(N(C)C)n1 [PCM-0064404]", "REPORTED METRIC": "inhibition at 10 µM", "ENDPOINT UNIT": "%", "RESULT VALUE": 15.9}
{"COMPOUND": "O=C(CCCN1CCC(O)(c2ccc(Cl)cc2)CC1)c1ccc(F)cc1 [PCM-0065124]", "REPORTED METRIC": "inhibition at 10 µM", "ENDPOINT UNIT": "%", "RESULT VALUE": -12.5}
{"COMPOUND": "NCCCCCN [PCM-0216205]", "REPORTED METRIC": "inhibition at 10 µM", "ENDPOINT UNIT": "%", "RESULT VALUE": 14.7}

Kindly consider the entry below.
Find the measured inhibition at 10 µM of COc1cc(C)[nH]c(=O)c1CNC(=O)c1c(C)n([C@H](C)C2CCN(CC(F)(F)F)CC2)c2ccccc12 [PCM-0214592] with BTK (Homo sapiens, UniProt Q06187) as test system.
21.6
